Measured values drawn from ChEMBL document CHEMBL1156812 for this set.

measured_target: Glucocorticoid receptor (Homo sapiens, UniProt P04150)
Sequence (P04150 whole entry): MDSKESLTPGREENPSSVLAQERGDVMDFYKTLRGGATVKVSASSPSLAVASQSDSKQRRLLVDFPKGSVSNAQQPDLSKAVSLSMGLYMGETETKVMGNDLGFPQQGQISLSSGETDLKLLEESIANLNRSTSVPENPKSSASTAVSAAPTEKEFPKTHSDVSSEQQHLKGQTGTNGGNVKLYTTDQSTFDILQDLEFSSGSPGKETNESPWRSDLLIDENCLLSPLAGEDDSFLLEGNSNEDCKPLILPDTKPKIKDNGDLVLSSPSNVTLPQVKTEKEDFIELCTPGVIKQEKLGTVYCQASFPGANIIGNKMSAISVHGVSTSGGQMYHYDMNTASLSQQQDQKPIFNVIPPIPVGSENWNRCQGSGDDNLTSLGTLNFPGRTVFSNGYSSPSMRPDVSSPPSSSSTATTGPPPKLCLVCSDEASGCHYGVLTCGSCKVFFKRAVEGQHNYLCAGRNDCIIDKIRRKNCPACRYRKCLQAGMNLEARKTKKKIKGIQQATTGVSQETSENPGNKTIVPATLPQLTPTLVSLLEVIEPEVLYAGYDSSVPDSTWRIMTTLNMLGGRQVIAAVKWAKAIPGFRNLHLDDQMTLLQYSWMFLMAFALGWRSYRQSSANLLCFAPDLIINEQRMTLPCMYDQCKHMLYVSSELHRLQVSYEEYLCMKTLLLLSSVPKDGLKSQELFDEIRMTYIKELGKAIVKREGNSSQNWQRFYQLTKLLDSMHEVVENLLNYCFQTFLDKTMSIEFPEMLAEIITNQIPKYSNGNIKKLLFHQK
property: pKi
Scale explanation: pKi corresponds to minus log10 of a concentration expressed in moles per litre.

Which pKi reading was recorded for the compound Cc1ccc([C@@](C)(O)[C@H]2CCCC3=Cc4c(-c5ccc(F)cc5)ncn4C[C@@]32C)s1 ?
8.82

// next record C[C@]12Cn3cnc(-c4ccc(F)cc4)c3C=C1CCC[C@@H]2[C@H](O)c1ccc(F)cc1 (stereo in doubt; 18)
7.60

// next record C=CCC(O)C1CCCC2=Cc3c(-c4ccc(F)cc4)ncn3CC21C (single isomer, unassigned; diastereomer 1)
8.10

----------
Can you tell me EC50 for the items I'm about to list?
measured_target: Glucocorticoid receptor (Homo sapiens, UniProt P04150)
assay_method_text: Transactivation of GAL-4 tagged glucocorticoid receptor ligand binding domain expressed in human HeLa cells assessed as NP1 activation by luciferase reporter gene assay
Type: cell-based
Write the value in nM as a bare number.

Which EC50 reading was recorded for the compound Cc1ccc([C@@](C)(O)[C@H]2CCCC3=Cc4c(-c5ccc(F)cc5)ncn4C[C@@]32C)s1 ?
272

// next record Cc1ccccc1[C@@](C)(O)[C@H]1CCCC2=Cc3c(-c4ccc(F)cc4)ncn3C[C@@]21C
920

----------
Can you tell me remaining at 10 min, 3 µM for the items I'm about to list?
assay_method_text: Metabolic stability in mouse liver microsomes assessed as compound remaining at 3 uM after 10 mins
Type: ADME, Microsome
stated_conditions: read-out: Stability
Write the value in % as a bare number.

Which remaining at 10 min, 3 µM reading was recorded for the molecule Cc1ccsc1[C@@](C)(O)[C@H]1CCCC2=Cc3c(-c4ccc(F)cc4)ncn3C[C@@]21C ?
21

// next record C[C@]12Cn3cnc(-c4ccc(F)cc4)c3C=C1CCC[C@@H]2[C@](C)(O)c1ccc(Cl)cc1
73

----------
assay_method_text: Metabolic stability in rat liver microsomes assessed as compound remaining at 3 uM after 10 mins
Format: ADME, Microsome
stated_conditions: read-out: Stability
property: remaining at 10 min, 3 µM (%)
Write the value in % as a bare number.

Which remaining at 10 min, 3 µM reading was recorded for the compound Cc1ccsc1[C@@](C)(O)[C@H]1CCCC2=Cc3c(-c4ccc(F)cc4)ncn3C[C@@]21C ?
2

// next record C[C@]12Cn3cnc(-c4ccc(F)cc4)c3C=C1CCC[C@@H]2[C@](C)(O)c1ccc(Cl)cc1
51

----------
measured_target: Glucocorticoid receptor (Homo sapiens)
property: Ki (nM)
Write the value in nM as a bare number.

Which Ki reading was recorded for the compound C[C@]12Cn3cnc(-c4ccc(F)cc4)c3C=C1CCC[C@@H]2[C@](C)(O)Cc1ccc(F)cc1 ?
11

// next record C[C@]12Cn3cnc(-c4ccc(F)cc4)c3C=C1CCC[C@@H]2[C@](C)(O)c1cccs1
2

// next record C[C@]12Cn3cnc(-c4ccc(F)cc4)c3C=C1CCC[C@@H]2[C@](C)(O)c1ccsc1
1

// next record C[C@]12Cn3cnc(-c4ccc(F)cc4)c3C=C1CCC[C@@H]2[C@](C)(O)C(F)(F)F
5.2

// next record C=CCC(O)C1CCCC2=Cc3c(-c4ccc(F)cc4)ncn3CC21C (single isomer, unassigned; diastereomer 2)
9

// next record C=CC[C@H](O)C1CCCC2=Cc3c(cnn3-c3ccc(F)cc3)C[C@@]21C (stereo partly drawn)
3.9

// next record C=CC[C@@](C)(O)[C@H]1CCCC2=Cc3c(-c4ccc(F)cc4)ncn3C[C@@]21C
4.3

// next record C[C@]12Cn3cnc(-c4ccc(F)cc4)c3C=C1CCC[C@@H]2[C@](C)(O)c1ccccc1
1

----------
measured_target: Glucocorticoid receptor (Homo sapiens, UniProt P04150)
assay_method_text: Transrepression activity at glucocorticoid receptor expressed in human A549 cells assessed as inhibition of IL-1-beta-induced NF-kappaB dependent E-selection promoter activation after 6 hrs by luciferase reporter gene based ELAM assay
Format: cell-based
property: EC50 (µM)
Write the value in µM as a bare number.

Which EC50 reading was recorded for the compound C[C@]12Cn3cnc(-c4ccc(F)cc4)c3C=C1CCC[C@@H]2[C@](C)(O)c1ccc(C#N)cc1 ?
0.105

// next record C[C@]12Cn3cnc(-c4ccc(F)cc4)c3C=C1CCC[C@@H]2[C@](C)(O)c1ccccc1
0.061

// next record C[C@]12Cn3cnc(-c4ccc(F)cc4)c3C=C1CCC[C@@H]2[C@](C)(O)C1CCCCC1
0.033

// next record C[C@]12Cn3cnc(-c4ccc(F)cc4)c3C=C1CCC[C@@H]2[C@](C)(O)c1cccc(C#N)c1
0.031

// next record C[C@]12Cn3cnc(-c4ccc(F)cc4)c3C=C1CCC[C@@H]2[C@](C)(O)c1nccs1
0.092

// next record C=CC[C@@](C)(O)[C@H]1CCCC2=Cc3c(-c4ccc(F)cc4)ncn3C[C@@]21C
0.079

// next record C[C@]12Cn3cnc(-c4ccc(F)cc4)c3C=C1CCC[C@@H]2[C@](C)(O)C1CC1
0.049

// next record Cc1ccc([C@@](C)(O)[C@H]2CCCC3=Cc4c(-c5ccc(F)cc5)ncn4C[C@@]32C)s1
0.018

// next record CCCC[C@@](C)(O)[C@H]1CCCC2=Cc3c(-c4ccc(F)cc4)ncn3C[C@@]21C
0.13

// next record Cc1cccc([C@@](C)(O)[C@H]2CCCC3=Cc4c(-c5ccc(F)cc5)ncn4C[C@@]32C)c1
0.099

// next record Cc1ccccc1[C@@](C)(O)[C@H]1CCCC2=Cc3c(-c4ccc(F)cc4)ncn3C[C@@]21C
0.031

// next record CC(C)C[C@@](C)(O)[C@H]1CCCC2=Cc3c(-c4ccc(F)cc4)ncn3C[C@@]21C
0.133

// next record Cc1ccsc1[C@@](C)(O)[C@H]1CCCC2=Cc3c(-c4ccc(F)cc4)ncn3C[C@@]21C
0.03
